Cited source: PubChem BioAssay AID540257

# experimental_protocol: antiviral activity against H1N1 influenza, dose response, cell-based, strain KY136 (AID 540257)
# condition: H1N1 KY136 influenza antiviral cell assay, % inhibition; series mostly up to 40 µM
The whole screen tested about 1,800 compounds, of which about 15 (0.8%) were called active. The list is a sample of the results. Potency and affinity values are given separately.
quantity: outcome

CN(C)c1ccc(/C=C/C=C2/C(=O)NC(=O)N(c3ccccc3)C2=O)cc1 : inactive
Cc1cc(C)cc(NC2=C(N)C(=O)c3ccccc3C2=O)c1 : inactive
Nc1[nH]c(N=NC(=O)c2ccccc2O)c2ccccc12 : inactive
CCOc1ccc(-c2nc(C#N)c(N3CCOCC3)o2)cc1 : inactive
NC(=O)NC(=O)CC1S/C(=N/N=C2\CSC(=O)N2)NC1=O (stereo unspecified) : inactive

Quick one: outcome for Oc1ccc(/C=N/N(c2ccccc2)c2ccccc2)c(O)c1O ?
inactive

Next compound: COc1cc(-c2n[nH]c(=S)n2-c2cccc(C(F)(F)F)c2)cc(OC)c1OC
inactive

Next compound: COc1ccc(NC(=O)CC2C(=O)N(c3cccc(OC)c3)C(=O)N2Cc2ccco2)cc1 (stereo unspecified)
inactive

Next compound: CCOc1ccc(N=Nc2c(=O)[nH]n3c(=O)c4c([nH]c23)CCCC4)cc1
inactive

Next compound: O=S(=O)(c1cccs1)N1CCN(CC(O)COc2cc(Cl)ccc2Cl)CC1 (stereo unspecified)
inactive

Next compound: CN(C)c1ccc(N=Nc2ccccc2C(=O)OCC(=O)N(C)c2ccccc2)cc1
inactive
